Listed here: items and their measured MIC.
System: Mycobacterium kansasii
Test: Antimycobacterial activity against isoniazid resistance Mycobacterium kansasii 225/80 after 7 days by micromethod
Type: functional
Conditions: 225/80, 168 h
Expressed in µM, but write only the number.

Observe how each entry below is paired with its result.
COc1cc(Cl)ccc1C(=S)Nc1cc(Cl)ccc1O; 16
COc1ccc(Cl)cc1C(=O)Nc1ccc(Br)cc1O; 500
COc1cc(Cl)ccc1C(=O)Nc1ccc(Cl)cc1O; 62.5
COc1cc(Cl)ccc1-c1nc2cc(Br)ccc2o1; 250

Okay, next one:
For the compound COc1cc(Cl)ccc1-c1nc2ccc(Cl)cc2o1 , what MIC is on record?
62.5
